molecular target: Urokinase-type plasminogen activator (Homo sapiens); experiment: Inhibition of human plasma urokinase using Glu-Gly-Arg-pNA (S-2444) peptide as substrate assessed as reduction of enzyme hydrolytic activity

>  <MOL_SMILES>
Cn1c(CN2C(=O)CN(c3ccc(OCc4ccncc4)cc3)C2=O)cc2cnc(C(=O)N[C@H](C#N)CCCCN)nc21

>  <IC50>
> 1 mM

$$$$
>  <MOL_SMILES>
COc1ccc(Oc2ccc(N3CC(=O)N(Cc4cc5cnc(C(=O)N[C@H](C#N)CCCCN)nc5n4C)C3=O)cc2)cc1

>  <IC50>
> 0.4 mM

$$$$
>  <MOL_SMILES>
Cn1c(CN2C(=O)CN(c3cccc(C(N)=O)c3)C2=O)cc2cnc(C(=O)N[C@H](C#N)CCCCN)nc21

>  <IC50>
> 1 mM

$$$$
>  <MOL_SMILES>
Cn1c(CN2C(=O)CN(c3ccc(Oc4ccccc4)c(C(N)=O)c3)C2=O)cc2cnc(C(=O)N[C@H](C#N)CCCCN)nc21

>  <IC50>
> 1 mM

$$$$
>  <MOL_SMILES>
Cn1c(CN2C(=O)CN(c3ccc(C#N)cc3)C2=O)cc2cnc(C(=O)N[C@H](C#N)CCCCN)nc21

>  <IC50>
> 1 mM

$$$$
